The origin of these recorded values is ChEMBL document CHEMBL1154393.

What follows is a collection of log10 of IC50 values obtained with Cholinesterase (Equus caballus).
Sequence (P81908 whole entry): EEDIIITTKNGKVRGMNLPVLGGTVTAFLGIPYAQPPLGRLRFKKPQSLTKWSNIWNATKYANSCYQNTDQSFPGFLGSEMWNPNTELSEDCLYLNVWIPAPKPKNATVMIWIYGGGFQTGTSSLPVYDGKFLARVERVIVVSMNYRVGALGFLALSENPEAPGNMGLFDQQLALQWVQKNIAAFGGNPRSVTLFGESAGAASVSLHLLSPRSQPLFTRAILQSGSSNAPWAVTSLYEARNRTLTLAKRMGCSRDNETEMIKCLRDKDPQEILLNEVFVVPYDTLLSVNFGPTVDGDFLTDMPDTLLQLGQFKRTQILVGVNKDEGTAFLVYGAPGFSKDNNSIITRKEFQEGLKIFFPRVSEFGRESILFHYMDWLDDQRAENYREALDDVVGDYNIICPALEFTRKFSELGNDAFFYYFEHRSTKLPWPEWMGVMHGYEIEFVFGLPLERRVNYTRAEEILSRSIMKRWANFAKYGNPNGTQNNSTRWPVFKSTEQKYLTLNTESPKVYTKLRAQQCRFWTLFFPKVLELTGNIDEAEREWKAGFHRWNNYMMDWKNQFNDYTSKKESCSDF
All values: log10 IC50 [nM].

>>> readout_value("CCCCCCOC(=O)[C@H](CCC(=O)NCCC1CCN(Cc2ccccc2)CC1)NC(=O)c1cc(Br)cs1")
2.88

The value of log10 of IC50 recorded for CCCCCCOC(=O)[C@H](CCC(=O)NCCC1CCN(Cc2ccccc2)CC1)NC(=O)c1cc2cccnc2s1 when tested on Cholinesterase (Equus caballus) reads 2.98

The value of log10 of IC50 recorded for CCCCCCOC(=O)[C@H](CCC(=O)NCCC1CCN(Cc2ccccc2)CC1)NC(=O)Cc1cc2ccc(Cl)cc2s1 when tested on Cholinesterase (Equus caballus) reads 1.70

The value of log10 of IC50 recorded for CCCCCCOC(=O)[C@H](CCC(=O)NCCC1CCN(Cc2ccccc2)CC1)NC(=O)c1cc2ccccc2s1 when tested on Cholinesterase (Equus caballus) reads 2.74

The value of log10 of IC50 recorded for CCCCCCOC(=O)[C@H](CCC(=O)NCCC1CCN(Cc2ccccc2)CC1)NC(=O)c1cc2ccsc2s1 when tested on Cholinesterase (Equus caballus) reads 2.85

The value of log10 of IC50 recorded for CCCCCCOC(=O)[C@H](CCC(=O)NCCC1CCN(Cc2ccccc2)CC1)NC(=O)c1ccccc1 when tested on Cholinesterase (Equus caballus) reads 3.18
